Catalogue of activation values
System Name: Cellular tumor antigen p53 (Homo sapiens) (UniProt P04637)
Sequence (P04637 whole entry, looked up): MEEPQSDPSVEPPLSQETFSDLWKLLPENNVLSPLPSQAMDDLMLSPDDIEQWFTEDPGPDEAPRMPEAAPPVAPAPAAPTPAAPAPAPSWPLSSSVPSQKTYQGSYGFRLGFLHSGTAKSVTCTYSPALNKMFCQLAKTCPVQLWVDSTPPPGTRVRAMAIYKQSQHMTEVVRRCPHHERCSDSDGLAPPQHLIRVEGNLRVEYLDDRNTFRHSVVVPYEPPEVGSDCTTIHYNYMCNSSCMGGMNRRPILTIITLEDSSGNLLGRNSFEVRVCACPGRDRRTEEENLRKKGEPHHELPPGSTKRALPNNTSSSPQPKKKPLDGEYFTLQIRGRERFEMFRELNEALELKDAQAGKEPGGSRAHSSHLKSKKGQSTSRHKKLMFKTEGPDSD
Experiment: Primary qHTS for small molecule compounds that upregulate eGFP-tagged delta133p53alpha (in N-terminal) cells. (AID 2060322);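 also: cells pre-induced with doxycycline then dosed without doxycycline; 0% = DMSO vehicle and 100% = reference activator; nearly all actives have a fitted effect of over 75% in size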
Conditions: NCI-H358 eGFP-delta133p53alpha fluorescence, 24 h; active compounds read high
Results filed as inconclusive are left out. Calls of active or inactive are those of the source. Calls follow the shape of the dose curve; as a rule, active = well fitted activation curve with a large enough effect; inconclusive = small, poorly fitted or top-dose-only effect; inactive = no such curve, though single readings can be large or run the other way.
Measured Metric: activation

>  <Molecule>
CC[C@@H]1/C=C/C=C/C[C@H](C)C(O)[C@](C)(O)C(=O)[C@H](C)C(O)[C@H](C)C(=O)[C@H](C)[C@@H](O)[C@H](C)/C=C/C(=O)O[C@H]2[C@@H](C)[C@@H](CC1)O[C@]1(O[C@H](C[C@H](C)O)[C@H](C)CC1=O)[C@@H]2C (some centres not stated)

>  <Measured Metric>
activation

>  <Endpoint Result>
-12.2% (inactive)

$$$$
>  <Molecule>
N#C[C@H](O[C@@H]1O[C@H](CO[C@@H]2O[C@H](CO)[C@H](O)[C@H](O)[C@H]2O)[C@H](O)[C@H](O)[C@H]1O)c1ccccc1

>  <Measured Metric>
activation

>  <Endpoint Result>
6.64% (inactive)

$$$$
>  <Molecule>
CCN1C[C@]2(COC(=O)c3ccccc3N3C(=O)C[C@H](C)C3=O)CC[C@H](OC)[C@@]34[C@@H]5C[C@H]6[C@H](OC)[C@@H]5[C@](O)(C[C@@H]6OC)[C@](O)([C@@H](OC)[C@H]23)[C@@H]14

>  <Measured Metric>
activation

>  <Endpoint Result>
10.3% (inactive)

$$$$
>  <Molecule>
CCCCC1C(=O)NC(=O)N(C2CCCCC2)C1=O (configuration not stated)

>  <Measured Metric>
activation

>  <Endpoint Result>
17% (inactive)

$$$$
>  <Molecule>
Cc1sc2c(c1C)C(c1ccc(Cl)cc1)=NC(CC(N)=O)c1nnc(C)n1-2 (configuration not stated)

>  <Measured Metric>
activation

>  <Endpoint Result>
-1.12% (inactive)

$$$$
>  <Molecule>
CC(Cc1ccccc1)NCCCCl (configuration not stated)

>  <Measured Metric>
activation

>  <Endpoint Result>
-27.6% (inactive)

$$$$
>  <Molecule>
CC=C(C)C(=O)O[C@H]1C(C)=C2[C@@H]3OC(=O)[C@@](C)(O)[C@@]3(O)[C@@H](OC(=O)CCC)C[C@](C)(OC(C)=O)[C@@H]2[C@@H]1OC(=O)CCCCCCC

>  <Measured Metric>
activation

>  <Endpoint Result>
-0.0676% (inactive)

$$$$

---

System Name: Cellular tumor antigen p53 (Homo sapiens)
Experiment: Primary qHTS for small molecule compounds that upregulate eGFP-tagged delta133p53alpha (in N-terminal) cells. (AID 2060322);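 also: cells pre-induced with doxycycline then dosed without doxycycline; 0% = DMSO vehicle and 100% = reference activator; nearly all actives have a fitted effect of over 75% in size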
Conditions: NCI-H358 eGFP-delta133p53alpha fluorescence, 24 h; active compounds read high
Inconclusive results are not listed.
Measured Metric: activation (%)

>  <Compound>
CC1=CC2/C=C(\C)CCC(O)C(O)/C=C/C(=O)OC23C(=O)NC(CC(C)C)C3C1C (stereo not given)

>  <Measured Metric>
activation

>  <Endpoint Result>
0.763

$$$$
>  <Compound>
CCOCCOC(C)=O

>  <Measured Metric>
activation

>  <Endpoint Result>
-27.7

$$$$
>  <Compound>
C[C@@H]1CCC2[C@@H](C)C(=O)OC3O[C@@]4(C)CCC1[C@]32OO4 (stereo not given in full)

>  <Measured Metric>
activation

>  <Endpoint Result>
37.5

$$$$
>  <Compound>
CC(=O)OCC1=C(C(=O)O)N2C(=O)[C@@H](NC(=O)CCC[C@@H](N)C(=O)O)[C@H]2SC1

>  <Measured Metric>
activation

>  <Endpoint Result>
20.4

$$$$
>  <Compound>
COc1ccc(CN(C(=O)[C@@H](N)Cc2c(C)cc(C(N)=O)cc2C)[C@@H](C)c2ncc(-c3ccccc3)[nH]2)cc1C(=O)O

>  <Measured Metric>
activation

>  <Endpoint Result>
12.3

$$$$

---

Experiment: BET inhibitor-based combinations targeting novel dependencies in MECOM-rearranged (r) AML: UCSD-AML1 cell line (AID 2202235); also: nearly all actives have a fitted effect of over 40% in size
Conditions: UCSD-AML1 AML cells viability, CellTiter-Glo, 48 h; series mostly up to 46 µM
Results filed as inconclusive are left out. The source made the active and inactive calls. Calls follow the shape of the dose curve; as a rule, active = well fitted inhibition curve with a large enough effect; inconclusive = small, poorly fitted or top-dose-only effect; inactive = no such curve, though single readings can be large or run the other way.
Outcome codes: True = active, False = inactive

>  <Compound>
CO/C1=C/C(C)=C\[C@@H](C)[C@@H](O)[C@@H](C)C/C(C)=C\C=C/[C@H](OC)[C@@H]([C@@H](C)[C@@H](O)[C@H](C)[C@@]2(O)C[C@@H](O)[C@H](C)[C@@H](C(C)C)O2)OC1=O

>  <Class Name>
False

$$$$
>  <Compound>
CCN1CCN(C(=O)Cc2ccc(Nc3ncc(F)c(Nc4ccc(C(=O)Nc5ccccc5Cl)cc4)n3)cc2)CC1

>  <Class Name>
True

$$$$
>  <Compound>
C[C@H]1[C@H](O)[C@@H](C)/C=C/C=C/CC/C=C/C=C/C=C/C=C/[C@H](O[C@@H]2O[C@H](C)[C@@H](O)[C@H](N)[C@@H]2O)C[C@@H]2O[C@](O)(C[C@@H](O)[C@H](O)CC[C@@H](O)C[C@@H](O)C[C@@H](O)CC(=O)O[C@H]1C)C[C@H](O)[C@H]2C(=O)O

>  <Class Name>
False

$$$$
>  <Compound>
CC(C)[C@]12O[C@H]1[C@@H]1O[C@]13[C@]1(O[C@H]1C[C@H]1C4=C(CC[C@@]13C)C(=O)OC4)[C@@H]2O

>  <Class Name>
True

$$$$
>  <Compound>
NN=C(N)N

>  <Class Name>
False

$$$$
>  <Compound>
CN1C(=O)CCS(=O)(=O)C1c1ccc(Cl)cc1 (configuration not stated)

>  <Class Name>
False

$$$$
>  <Compound>
Cc1sc2c(c1C)C(c1ccc(Cl)cc1)=NC(CC(=O)Nc1ccc(O)cc1)c1nnc(C)n1-2 (configuration not stated)

>  <Class Name>
True

$$$$

---

Experiment: BET inhibitor-based combinations targeting novel dependencies in MECOM-rearranged (r) AML: UCSD-AML1 cell line (AID 2202235); also: nearly all actives have a fitted effect of over 40% in size; also: potency is read from the fitted curve at half-maximal effect
Conditions: UCSD-AML1 AML cells viability, CellTiter-Glo, 48 h; series mostly up to 46 µM
Inconclusive results are not listed. Activity calls are given as the source filed them. Calls come from the whole dose curve; as a rule, active = well fitted inhibition curve with a large enough effect; inconclusive = small, poorly fitted or top-dose-only effect; inactive = no such curve, though single readings can be large or run the other way.

>  <Input Smiles>
CC(C)c1cccc(C(C)C)c1O

>  <Potency>
inactive

$$$$
>  <Input Smiles>
O=C(CBr)N1CC([N+](=O)[O-])([N+](=O)[O-])C1

>  <Potency>
inactive

$$$$
>  <Input Smiles>
CC[C@H]1/C=C\C=C/C[C@@H](C)[C@H](O)[C@@](C)(O)C(=O)[C@@H](C)[C@H](O)[C@@H](C)C(=O)[C@@H](C)[C@H](O)[C@@H](C)/C=C\C(=O)O[C@@H]2[C@H](C)[C@H](CC1)O[C@]1(CC[C@H](C)[C@H](C[C@@H](C)O)O1)[C@H]2C

>  <Potency>
7.42 µM (active)

$$$$
>  <Input Smiles>
CN(C)[C@@H]1C(=O)C(C(N)=O)=C(O)[C@@]2(O)C(=O)C3=C(O)c4c(O)cccc4[C@@](C)(O)[C@H]3C[C@@H]12

>  <Potency>
inactive

$$$$

---

Experiment: BET inhibitor-based combinations targeting novel dependencies in MECOM-rearranged (r) AML: HNT-34 cell line (AID 2202234); also: nearly all actives have a fitted effect of over 35% in size
Conditions: HNT-34 AML viability, CellTiter-Glo luminescence, 48 h; series mostly up to 46 µM
Results filed as inconclusive are left out. Calls of active or inactive are those of the source. The call rests on the fitted dose curve; in most records, active means well fitted inhibition curve with a large enough effect; inconclusive means small, poorly fitted or top-dose-only effect; inactive means no such curve, though single readings can be large or run the other way.
Possible outcomes: y for active, n for inactive

>  <Compound>
CC(N[C@H]1C[C@@H]1c1ccccc1)c1ccc2c(c1)OCCO2 (some centres not stated)

>  <Class Name>
n

$$$$
>  <Compound>
CC[C@H]1/C=C\C=C/C[C@@H](C)[C@H](O)[C@@](C)(O)C(=O)[C@@H](C)[C@H](O)[C@@H](C)C(=O)[C@@H](C)[C@H](O)[C@@H](C)/C=C\C(=O)O[C@@H]2[C@H](C)[C@H](CC1)O[C@]1(CC[C@H](C)[C@H](C[C@@H](C)O)O1)[C@H]2C

>  <Class Name>
y

$$$$
>  <Compound>
Cn1cc(C2=C(c3cn(C4CCN(Cc5ccccn5)CC4)c4ccccc34)C(=O)NC2=O)c2ccccc21

>  <Class Name>
y

$$$$
>  <Compound>
Clc1ccccc1C(c1ccccc1)(c1ccccc1)n1cccn1

>  <Class Name>
n

$$$$
>  <Compound>
C[C@]12CC[C@H]3[C@@H](CCC4=CC(=O)CC[C@@]43C)[C@H]1CC[C@H]2OC(=O)CCC1CCCC1

>  <Class Name>
n

$$$$
>  <Compound>
C/C=C(/C)C(=O)O[C@H]1C(C)=C2[C@H]([C@@H]1OC(=O)CCCCCCC)[C@@](C)(OC(C)=O)C[C@H](OC(=O)CCC)[C@@]1(O)[C@H]2OC(=O)[C@@]1(C)O

>  <Class Name>
y

$$$$
>  <Compound>
O=S(=O)(F)Cc1ccccc1

>  <Class Name>
n

$$$$
